Tested on: ALK
Details: concentration: 1 μM, replicates: in singlicate; n = 1;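 note: KINOMEscan kinase panel screen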
ASSAY_ENDPOINT: %Inh (%)
Give bare numbers, in %.

O=C(Nc1n[nH]c2cc(-c3ccoc3)ccc12)C1CC1    0
COc1cccc(C(=O)Nc2cccc(Oc3ccc4nc(NC(=O)C5CC5)cn4n3)c2)c1    0
c1ccc(-c2cnc3nccnn23)cc1    20

Field: %Inh. Fill in for each record below.
1. CC(=O)Nc1nc2cnc(Nc3cc(NC(=O)c4cccc(C5(C#N)CC5)c4Cl)ccc3C)nc2s1
2. Cl.NC(=O)c1cccc(Nc2nccc(Nc3ccc(Oc4c(Cl)cccc4Cl)c(Cl)c3)n2)c1
3. CC(C)(C)c1ccc2nccc(Nc3cccc(O)c3)c2c1
4. COc1cc(Nc2nccc(-c3c(-c4cccc(NC(=O)c5c(F)cccc5F)c4)nn4ccccc34)n2)cc(OC)c1OC
5. Cn1cc(-c2ccc3c(c2)CCN3C(=O)Cc2cccc(Cl)c2)c2c(N)ncnc21
6. Cl.c1ccc(-c2ccc3c(Nc4ccc5[nH]ccc5c4)ccnc3c2)nc1

Ans.
0
3
39
14
30
25

###

Test system: CAMK2B
Conditions: concentration: 1 μM, replicates: in singlicate; n = 1
Record form. Attribute: %Inh. Fill in for each entry.
Answers are plain numbers, in %.

Here's what some known entries look like.
Nc1ncc(-c2ccc3nccc(-c4ccncc4)c3c2)cc1S(=O)(=O)N1CCOCC1    0
CCS(=O)(=O)c1ccc(OC)c(Nc2nccc(-c3c(-c4cccc(NC(=O)c5c(F)cccc5F)c4)nn4ncccc34)n2)c1    0
COc1cc2c(cc1OCCN1CCNCC1)ncc1c3ccc(C#N)cc3[nH]c21    86
O=C(Nc1n[nH]c2nc(-c3ccc(O)cc3)ccc12)C1CC1    19

Field: %Inh. Fill in for each record below.
1. Cl.Cl.NCC(NCc1ccc(-c2ccnc3[nH]ccc23)s1)c1ccccc1 (centres unmarked)
2. Cc1cccc(Nc2nc(N[C@H]3CCNC3)ncc2C(N)=O)c1.Cl
3. Nc1ncc(-c2cccnc2)c2scc(-c3ccc4c(c3)CCN4C(=O)Cc3ccccc3)c12
4. CSc1cccc2c(-c3ccncn3)c(-c3ccc(F)cc3)nn12
5. CCc1ccc(-c2ccc3c(c2)-c2c(cnn2C)S(=O)(=O)N3C)cc1
6. Cc1ccc(C(=O)N2CC[C@@H](O)C2)cc1-n1c(C)cc(OCc2ccc(F)cc2F)c(Br)c1=O

Ans.
1. 0
2. 0
3. 0
4. 0
5. 4
6. 0

Field: %Inh. Fill in for each record below.
1. CCCCc1nn2ncccc2c1-c1ccnc(Nc2ccc(N3CCN(C)CC3)cc2)n1
2. CN(C)Cc1ccc(-c2ccc3c(Nc4ccc(Oc5ccccn5)cc4)ccnc3c2)o1
3. COc1ccc(Nc2nccc(NCCNC(=O)c3cc4ccccc4s3)n2)cc1
4. COCCOCCOc1cc2ncc3c4ccc(C#N)cc4[nH]c3c2cc1OC

Ans.
0
0
0
57

Field: %Inh. Fill in for each record below.
1. Fc1ccc(-c2ncn(C3CCNCC3)c2-c2ccnc(Oc3ccc(-c4ccccc4)cc3)n2)cc1
2. COc1cc(Nc2nccc(N3CCC(NC(=O)Nc4cccc(C(C)=O)c4)C3)n2)cc(OC)c1OC (centres unmarked)
3. CNC(=O)c1ccccc1Nc1nc(Nc2ccc(N3CCOCC3)cc2)ncc1Cl.Cl
4. COC(=O)Nc1nc2cc(Oc3ccc(NC(=O)Nc4cc(C(F)(F)F)ccc4F)cn3)ccc2[nH]1.Cl.Cl
5. Cn1cc(-c2[nH]c3cc(NC(=O)[C@H](N)C4CCCCC4)cc4c3c2C=NNC4=O)cn1
6. c1ccc(-c2n[nH]cc2Nc2ccnc3ccccc23)nc1

Ans.
1. 0
2. 0
3. 14
4. 0
5. 15
6. 17

Field: %Inh. Fill in for each record below.
1. Cl.Cl.NCC(C(=O)Nc1cc(Br)c(-c2ccnc3[nH]ccc23)s1)c1ccccc1 (centres unmarked)
2. Cl.NC(=O)c1cccc(Nc2nccc(Nc3ccc(Oc4c(Cl)cccc4Cl)c(Cl)c3)n2)c1
3. COc1cc(Nc2nccc(-c3c(-c4cccc(NC(=O)c5c(F)cccc5F)c4)nn4ncccc34)n2)cc(OC)c1OC
4. NCCCC(NC(=O)c1cc(Br)c(-c2ccnc3[nH]ccc23)s1)c1ccccc1.O=C(O)C(F)(F)F.O=C(O)C(F)(F)F (centres unmarked)
5. FC(F)(F)c1ccc(/C=C/c2cncnc2Nc2ccc3[nH]c(Cc4ccccc4)nc3c2)cc1
6. O=C(Nc1n[nH]c2cc(-c3ccoc3)ccc12)C1CC1

Ans.
[100, 0, 0, 0, 36, 0]

Field: %Inh. Fill in for each record below.
1. O=C(Nc1ccccc1F)NC1CCN(c2ccnc(Nc3ccc(F)cc3)n2)CC1
2. Clc1ccc(-c2nn3ncccc3c2-c2ccnc(Nc3ccc4c(c3)OCCO4)n2)cc1
3. COc1cccc(C(=O)Nc2cccc(Oc3ccc4nc(NC(=O)C5CC5)cn4n3)c2)c1
4. CN(C)S(=O)(=O)c1cc(-c2ccc3nccc(-c4cccc(S(N)(=O)=O)c4)c3c2)cnc1N

Ans.
0
0
18
0

Field: %Inh. Fill in for each record below.
1. Oc1cc(Nc2ccnc3cc(I)ccc23)ccc1F
2. Cc1ccc(C)c(NC(=O)NC2CCN(c3ccnc(Nc4ccc(F)cc4)n3)C2)c1 (centres unmarked)

Ans.
0
0
